Where do the numbers come from? From patent US20250257060A1.

test: Pharmacokinetic test in mice (IV and PO); assay type: in vivo, BALB/c mice; conditions: mice, PO 10 mg/kg
Recorded t½z values for a group of compounds are listed next.
attributeMeasured: t½z (h)

> print(dat)
                                   compound  observedvalue
1  CC(F)(F)C(=O)N[C@@H]1CCCC[C@H]1N1Cc2ccc(-c3nnc(C(F)F)o3)cc2S1(=O)=O          0.919
2  O=C(N[C@H]1[C@H](N2Cc3ccc(-c4nnc(C(F)F)o4)cc3S2(=O)=O)CCCC1(F)F)C(F)F          3.551
3  O=C(N[C@@H]1CCCC[C@H]1N1Cc2ccc(-c3nnc(C(F)F)o3)cc2S1(=O)=O)C(F)F           1.62
4  O=S1(=O)c2cc(-c3nnc(C(F)F)o3)ccc2CN1C(c1ccccn1)[C@H](O)c1ccccn1 (stereo partly shown)          3.323

###

experiment: Pharmacokinetic test in mice (IV and PO); format: in vivo, BALB/c mice; conditions: BALB/c, mouse, plasma; mice, PO 30 mg/kg
Recorded Tmax values for a group of compounds are listed next.
attributeMeasured: Tmax (min)

> print(dat)
                                inputsmiles  attributemeasured  observedvalue
1  O=C(N[C@@H]1CCCC[C@H]1N1Cc2ccc(-c3nnc(C(F)F)o3)cc2S1(=O)=O)C(F)F               Tmax           40.2
2  CC(F)(F)C(=O)N[C@@H]1CCCC[C@H]1N1Cc2ccc(-c3nnc(C(F)F)o3)cc2S1(=O)=O               Tmax             25

###

experiment: Phase I metabolic stability in dog liver microsomes (DLMs); format: in vitro ADME, beagle dogs; details: beagle, dog, liver microsomes, pH 7.4; DLM
attributeMeasured: CLint scaled at 1 µM

> print(dat)
                                   molecule     observedvalue
1  O=C(N[C@@H]1CCCC[C@H]1N1Cc2ccc(-c3nnc(C(F)F)o3)cc2S1(=O)=O)C(F)F [Compound 2]  < 13.8 mL/min/kg
2  CC(F)(F)C(=O)N[C@@H]1CCCC[C@H]1N1Cc2ccc(-c3nnc(C(F)F)o3)cc2S1(=O)=O [Compound 1]  < 13.8 mL/min/kg

###

test: Pharmacokinetic test in mice (IV and PO); assay type: in vivo, BALB/c mice; conditions: mice, IV 1 mg/kg
attributeMeasured: CLz (mL/min/kg)

> print(dat)
                                inputsmiles  observedvalue
1  O=C(N[C@@H]1CCCC[C@H]1N1Cc2ccc(-c3nnc(C(F)F)o3)cc2S1(=O)=O)N1CCOCC1          19.58
2  CC(F)(F)C(=O)N[C@@H]1CCCC(F)(F)[C@H]1N1Cc2ccc(-c3nnc(C(F)F)o3)cc2S1(=O)=O            8.3
3  O=C(N[C@@H]1CCOC[C@H]1N1Cc2ccc(-c3nnc(C(F)F)o3)cc2S1(=O)=O)C(F)F            8.4
4  O=C(N[C@@H]1COCC[C@H]1N1Cc2ccc(-c3nnc(C(F)F)o3)cc2S1(=O)=O)C(F)F              8

###

test: Pharmacokinetic test in mice (IV and PO); format: in vivo, BALB/c mice; conditions: BALB/c, mouse, plasma; mice, PO 5 mg/kg
Recorded AUC(0-t) values for a group of molecules are listed next.
attributeMeasured: AUC(0-t) (µM·h)

> print(dat)
                                inputsmiles  attributemeasured  observedvalue
1  O=C(N[C@@H]1CCCC[C@H]1N1Cc2ccc(-c3nnc(C(F)F)o3)cc2S1(=O)=O)N1CCOCC1           AUC(0-t)           8.64
2  O=C(N[C@@H]1COCC[C@H]1N1Cc2ccc(-c3nnc(C(F)F)o3)cc2S1(=O)=O)C(F)F           AUC(0-t)           21.4
3  O=C(N[C@@H]1CCOC[C@H]1N1Cc2ccc(-c3nnc(C(F)F)o3)cc2S1(=O)=O)C(F)F           AUC(0-t)           14.8
4  CN(C)C(=O)N[C@@H]1CCCC[C@H]1N1Cc2ccc(-c3nnc(C(F)F)o3)cc2S1(=O)=O           AUC(0-t)           4.56
5  CC(F)(F)C(=O)N[C@@H]1CCCC(F)(F)[C@H]1N1Cc2ccc(-c3nnc(C(F)F)o3)cc2S1(=O)=O           AUC(0-t)           19.9
6  Cn1cc([C@@H]([C@H](O)c2ccccc2)N2Cc3ccc(-c4nnc(C(F)F)o4)cc3S2(=O)=O)cn1           AUC(0-t)           25.5
7  O=S1(=O)c2cc(-c3nnc(C(F)F)o3)ccc2CN1[C@H](c1ccccn1)[C@H](O)c1ccc(F)cn1           AUC(0-t)           15.1
